meta.source: patent US20250154277A1

Listed here: items and their measured EC50.
- target-entity: T1, human 5T4-His protein (human, UniProt Q13641 32-355)
- T1 construct: also called recombinant 5T4 protein (human 5T4-his tag); human 5T4 protein; not shown: His tag
- T1 sequence (looked up): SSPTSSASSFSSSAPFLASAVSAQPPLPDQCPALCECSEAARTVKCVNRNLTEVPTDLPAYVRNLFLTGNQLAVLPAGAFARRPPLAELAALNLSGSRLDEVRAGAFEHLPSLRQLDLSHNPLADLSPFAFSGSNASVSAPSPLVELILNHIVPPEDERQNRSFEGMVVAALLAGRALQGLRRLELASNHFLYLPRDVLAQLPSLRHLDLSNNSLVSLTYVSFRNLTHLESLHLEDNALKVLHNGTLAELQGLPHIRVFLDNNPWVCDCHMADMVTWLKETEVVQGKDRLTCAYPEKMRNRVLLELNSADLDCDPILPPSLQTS
- measurement-description: ELISA, coated 5T4-His
Reply numerically in nM, unit not repeated.

// worked examples, EC50 included
Hu159D5-7 (antibody, V domains shown, humanized) VH: EVQLVESGGGVVQPGRSLRLSCAASGFTFSNFGMHWVRQAPGKGLEWVAYISSGSSTFYYADSVKGRFTISRDNSKNTLYLQMNSLRAEDTAVYFCARSPAYYRYGLDYWGQGTTVTVSS VL: DIVMTQTPLSLSVTPGQPASISCRASQSVSSSTFSYMHWYQQKPGQPPQLLIYSSSNLESGVPDRFSGSGSGTDFTLKISRVEAEDVGVYYCQHSWEIPYTFGGGTKVEIK : 0.097
159D5-P1 (antibody, V domains shown, chimeric 159D5 with S62A (DS to DA) in VH CDR2; also called PTM removal antibody of 159D5-P1; 159D5-VH.S62A with 159D5 VL) VH: DVQLVESGGGLVQPGGSRKLSCTASGFTFSNFGMHWVRQAPETGLEWVAYISSGSSTFYYADAVKGRFTISRDNPKNTLFLQMTSLRSEDTAMYFCARSPAYYRYGLDYWGQGTTLTVSS VL: DIVLTQSPASLAVSLGQRATISCRASQSVSSSTFSYMHWYQQKPGQPPKLLIKSSSNLESGVPARFSGSGSGTDFTLNIHPVEEEDTATYYCQHSWEIPYTFGGGTKLEIK : 0.13

Dear colleague, I am looking for the recorded EC50 of the following binder: Hu159D5-2 (antibody, V domains shown, humanized) VH: EVQLVESGGGVVQPGRSLRLSCAASGFTFSNFGMHWVRQAPGKGLEWVAYISSGSSTFYYADSVKGRFTISRDNSKNTLYLQMNSLRAEDTAVYYCARSPAYYRYGLDYWGQGTTVTVSS VL: DIVMTQTPLSLSVTPGQPASISCRASQSVSSSTFSYMHWYQQKPGQPPQLLIKSSSNLESGVPDRFSGSGSGTDFTLKISRVEAEDVGVYYCQHSWEIPYTFGGGTKVEIK
0.12

Dear colleague, I am looking for the recorded EC50 of the following binder: Hu159D5-9 (antibody, V domains shown, humanized) VH: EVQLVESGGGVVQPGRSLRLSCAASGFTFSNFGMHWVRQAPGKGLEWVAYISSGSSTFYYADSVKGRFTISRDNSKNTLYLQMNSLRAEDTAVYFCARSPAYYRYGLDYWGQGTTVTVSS VL: DIVLTQTPLSLSVTPGQPASISCRASQSVSSSTFSYMHWYQQKPGQPPQLLIKSSSNLESGVPDRFSGSGSGTDFTLKISRVEAEDVGVYYCQHSWEIPYTFGGGTKVEIK
0.14

Dear colleague, I am looking for the recorded EC50 of the following binder: Hu159D5-11 (antibody, V domains shown, humanized) VH: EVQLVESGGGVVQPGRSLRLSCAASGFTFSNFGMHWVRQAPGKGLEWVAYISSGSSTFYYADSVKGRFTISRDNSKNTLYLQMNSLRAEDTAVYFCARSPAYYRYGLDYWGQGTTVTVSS VL: DIVMTQSPDSLAVSLGERATINCRASQSVSSSTFSYMHWYQQKPGQPPKLLIKSSSNLESGVPDRFSGSGSGTDFTLTISSLQAEDVAVYYCQHSWEIPYTFGGGTKVEIK
0.12
